- procedure_summary: Inhibition of PrPSc formation in mouse SMB cells at 10 uM relative to control
- Type: functional
readout_name: inhibition at 10 µM (%)
Write the number in % without appending the unit.

> print(dat)
                           structure.smiles  result.number
1  COC(=O)c1ccc(Sc2nc(N)c(C#N)c(-c3cccs3)c2C#N)cc1             90
2  N#Cc1c(N)nc(Sc2ccc(O)cc2)c(C#N)c1-c1ccc2c(c1)OCO2             82
3  N#Cc1c(N)nc(SCc2ccccc2)c(C#N)c1-c1ccc(Cl)cc1             92
4  COC(=O)c1ccc(Sc2nc(N)c(C#N)c(-c3ccco3)c2C#N)cc1             69
5  N#Cc1c(N)nc(Sc2ccccc2)c(C#N)c1-c1ccc2c(c1)OCCO2             61

Query :: Indicate its recorded inhibition at 10 µM; the compound in question is N#Cc1c(N)nc(Sc2cccc(O)c2)c(C#N)c1-c1ccc2c(c1)OCCO2
Result :: 86

Query :: Indicate its recorded inhibition at 10 µM; the compound in question is N#Cc1c(N)nc(Sc2cccc(Cl)c2)c(C#N)c1-c1ccc2c(c1)OCO2
Result :: 96

Query :: Indicate its recorded inhibition at 10 µM; the compound in question is N#Cc1c(N)nc(SCc2ccccc2)c(C#N)c1-c1ccc2c(c1)OCCO2
Result :: 94

Query :: Indicate its recorded inhibition at 10 µM; the compound in question is N#Cc1c(N)nc(SCc2ccccc2)c(C#N)c1-c1cccs1
Result :: 81

Query :: Indicate its recorded inhibition at 10 µM; the compound in question is N#Cc1c(N)nc(Sc2ccccc2O)c(C#N)c1-c1cccs1
Result :: 65

Query :: Indicate its recorded inhibition at 10 µM; the compound in question is N#Cc1c(N)nc(Sc2ccccc2O)c(C#N)c1-c1ccc2c(c1)OCCO2
Result :: 89

Query :: Indicate its recorded inhibition at 10 µM; the compound in question is N#Cc1c(N)nc(SCc2ccccc2)c(C#N)c1-c1ccc2c(c1)OCO2
Result :: 79

Query :: Indicate its recorded inhibition at 10 µM; the compound in question is N#Cc1c(N)nc(Sc2cccc(Cl)c2)c(C#N)c1-c1cccs1
Result :: 84

Query :: Indicate its recorded inhibition at 10 µM; the compound in question is COC(=O)c1ccc(Sc2nc(N)c(C#N)c(-c3cccc(O)c3)c2C#N)cc1
Result :: 70

Query :: Indicate its recorded inhibition at 10 µM; the compound in question is N#Cc1c(N)nc(Sc2ccc(O)cc2)c(C#N)c1-c1cccc(O)c1
Result :: 85

Query :: Indicate its recorded inhibition at 10 µM; the compound in question is COC(=O)c1ccc(-c2c(C#N)c(N)nc(Sc3ccccc3O)c2C#N)cc1
Result :: 72

Query :: Indicate its recorded inhibition at 10 µM; the compound in question is COC(=O)c1cccc(Sc2nc(N)c(C#N)c(-c3cccc(O)c3)c2C#N)c1
Result :: 123

---

- measured_target: Major prion protein (Homo sapiens) (UniProt P04156)
- procedure_summary: Binding affinity to human prion protein by surface plasmon resonance assay
# RUmax annotations
Write the number in % without appending the unit.

> print(dat)
                           structure.smiles  readout.name  unit.spec  result.number
1  N#Cc1c(N)nc(SCc2ccccc2)c(C#N)c1-c1cccc(O)c1         RUmax          %           96.5
2  N#Cc1c(N)nc(Sc2cccc(O)c2)c(C#N)c1-c1ccc2c(c1)OCO2         RUmax          %            250
3  COC(=O)c1cccc(Sc2nc(N)c(C#N)c(-c3ccc(Cl)cc3)c2C#N)c1         RUmax          %            6.2
4  N#Cc1c(N)nc(Sc2cccc(Cl)c2)c(C#N)c1-c1cccs1         RUmax          %            124
5  N#Cc1c(N)nc(Sc2ccc(Cl)cc2)c(C#N)c1-c1ccc(Cl)cc1         RUmax          %           19.3

Then there is this compound:
Query :: Specify RUmax for N#Cc1c(N)nc(Sc2ccccc2)c(C#N)c1-c1ccc2c(c1)OCCO2 , system Major prion protein (Homo sapiens) (UniProt P04156).
Result :: 27.9
